experimental_details: Long-term stability in spiked pooled human plasma
experimental_context: validation standard LLOV
readout_kind: Long-term stability, 1 month, -20°C Accuracy [%]

molecule="CS(=O)(=O)c1ccc(C(=O)Nc2ccc(Cl)c(-c3ccccn3)c2)c(Cl)c1 [Vismodegib]" recorded_value=92.5%
molecule="CNC(=O)c1ccccc1Sc1ccc2c(/C=C/c3ccccn3)n[nH]c2c1 [Axitinib]" recorded_value=87.8%
molecule="CCCS(=O)(=O)Nc1ccc(F)c(C(=O)c2c[nH]c3ncc(-c4ccc(Cl)cc4)cc23)c1F [Vemurafenib]" recorded_value=105.8%
molecule="C[C@@H](Oc1cc(-c2cnn(C3CCNCC3)c2)cnc1N)c1c(Cl)ccc(F)c1Cl [Crizotinib]" recorded_value=77.1%
molecule="Nc1cccc2c1C(=O)N(C1CCC(=O)NC1=O)C2=O (centres unmarked) [Pomalidomide]" recorded_value=91.3%
molecule="O=C1CN2Cc3c(ccc(Cl)c3Cl)N=C2N1 [Anagrelide]" recorded_value=103.9%
molecule="CC1(C)CCC(CN2CCN(c3ccc(C(=O)NS(=O)(=O)c4ccc(NCC5CCOCC5)c([N+](=O)[O-])c4)c(Oc4cnc5[nH]ccc5c4)c3)CC2)=C(c2ccc(Cl)cc2)C1 [Venetoclax]" recorded_value=111.0%
molecule="COc1cc2c(Nc3ccc(Br)cc3F)ncnc2cc1OCC1CCN(C)CC1 [Vandetanib]" recorded_value=95.3%
molecule="CNCc1ccc(-c2[nH]c3cc(F)cc4c3c2CCNC4=O)cc1 [Rucaparib]" recorded_value=104.7%
molecule="CNC(=O)c1cc(Oc2ccc(NC(=O)Nc3ccc(Cl)c(C(F)(F)F)c3)cc2)ccn1 [Sorafenib]" recorded_value=106.1%
molecule="NC(=O)c1cccc2cn(-c3ccc([C@@H]4CCCNC4)cc3)nc12 [Niraparib]" recorded_value=97.8%
molecule="COc1cc2ncnc(Nc3ccc(F)c(Cl)c3)c2cc1OCCCN1CCOCC1 [Gefitinib]" recorded_value=95.8%
molecule="CNC(=O)c1ccc(N2C(=S)N(c3cnc(C#N)c(C(F)(F)F)c3)C(=O)C23CCC3)cc1F [Apalutamide]" recorded_value=96.1%
molecule="COc1cc2nccc(Oc3ccc(NC(=O)NC4CC4)c(Cl)c3)c2cc1C(N)=O [Lenvatinib]" recorded_value=109.4%
molecule="Cc1nc(Nc2ncc(C(=O)Nc3c(C)cccc3Cl)s2)cc(N2CCN(CCO)CC2)n1 [Dasatinib]" recorded_value=108.6%
molecule="COC(=O)c1ccc2c(c1)NC(=O)/C2=C(\\Nc1ccc(N(C)C(=O)CN2CCN(C)CC2)cc1)c1ccccc1 [Nintedanib]" recorded_value=102.0%
molecule="Cc1cc(Nc2ncc(Cl)c(Nc3ccccc3S(=O)(=O)C(C)C)n2)c(OC(C)C)cc1C1CCNCC1 [Ceritinib]" recorded_value=101.5%

----------
Entries and their measured Long-term stability, 2 month, -80°C Accuracy [%] follow.
experimental_details: Long-term stability in spiked pooled human plasma
experimental_context: validation standard 2xLLOV
readout_kind: Long-term stability, 2 month, -80°C Accuracy [%] (%)

compound=COC(=O)c1ccc2c(c1)NC(=O)/C2=C(\Nc1ccc(N(C)C(=O)CN2CCN(C)CC2)cc1)c1ccccc1 uom=% recorded_value=99.7
compound=CCN1CCN(Cc2ccc(Nc3ncc(F)c(-c4cc(F)c5nc(C)n(C(C)C)c5c4)n3)nc2)CC1 uom=% recorded_value=111.4
compound=O=C(Nc1cnn2ccc(N3CCC[C@@H]3c3cc(F)ccc3F)nc12)N1CC[C@H](O)C1 uom=% recorded_value=104.7
compound=N#CC[C@H](C1CCCC1)n1cc(-c2ncnc3[nH]ccc23)cn1 uom=% recorded_value=100.0
compound=CNCc1ccc(-c2[nH]c3cc(F)cc4c3c2CCNC4=O)cc1 uom=% recorded_value=99.7
compound=C[C@H]1Oc2cc(cnc2N)-c2c(nn(C)c2C#N)CN(C)C(=O)c2ccc(F)cc21 uom=% recorded_value=91.9
compound=Cc1cc(Nc2ncc(Cl)c(Nc3ccccc3S(=O)(=O)C(C)C)n2)c(OC(C)C)cc1C1CCNCC1 uom=% recorded_value=96.4
compound=CCN(CC)CCNC(=O)c1c(C)[nH]c(/C=C2\C(=O)Nc3ccc(F)cc32)c1C uom=% recorded_value=108.9
compound=CN(C)C(=O)c1cc2cnc(Nc3ccc(N4CCNCC4)cn3)nc2n1C1CCCC1 uom=% recorded_value=112.4
compound="O=C1CCC(N2C(=O)c3ccccc3C2=O)C(=O)N1 (centres unmarked) [Thalidomide]" uom=% recorded_value=79.7
compound=CC(C)(C)c1nc(-c2cccc(NS(=O)(=O)c3c(F)cccc3F)c2F)c(-c2ccnc(N)n2)s1 uom=% recorded_value=101.3
compound=CN(C)C/C=C/C(=O)Nc1cc2c(Nc3ccc(F)c(Cl)c3)ncnc2cc1O[C@H]1CCOC1 uom=% recorded_value=92.5
compound="Nc1cccc2c1CN(C1CCC(=O)NC1=O)C2=O (centres unmarked) [Lenalidomide]" uom=% recorded_value=104.0
compound=Cc1ccc(Nc2nccc(N(C)c3ccc4c(C)n(C)nc4c3)n2)cc1S(N)(=O)=O uom=% recorded_value=103.8
compound="COc1cc2nccc(Oc3ccc(NC(=O)C4(C(=O)Nc5ccc(F)cc5)CC4)cc3)c2cc1OC [Cabozantinib]" uom=% recorded_value=100.3
compound=Cc1ccc(NC(=O)c2ccc(CN3CCN(C)CC3)cc2)cc1Nc1nccc(-c2cccnc2)n1 uom=% recorded_value=112.9
compound=CS(=O)(=O)CCNCc1ccc(-c2ccc3ncnc(Nc4ccc(OCc5cccc(F)c5)c(Cl)c4)c3c2)o1 uom=% recorded_value=102.3

Data origin, for the record: paper PMC8699473
